- Run Description: soluble on expression in E. coli; label from the status in PepcDB or PDB records
Experimental Endpoint: soluble on expression in E. coli

Ordered Residues: MGHHHHHHGSLVPRGSRAYSFKVVLLGEGCVGKTSLVLRYCENKFNDKHITTLQASFLTKKLNIGGKRVNLAIWDTAGQERFHALGPIYYRDSNGAILVYDITDEDSFQKVKNWVKELRKMLGNEICLCIVGNKIDLEKERHVSIQEAESYAESVGAKHYHTSAKQNKGIEELFLDLCKRMIET
soluble on expression in E. coli: soluble
//
Ordered Residues: IGKVGYRLGFNLSDYKSKITKYDDNATTKLLSSFYPGQVMGEIWGYIADGYYSVDDFEDTSSWKLKEGITSINGYNVRPGDVKFKNLRDDESSTNVITSGDNTFDNPGDRKVIGNTTPRYQYGINLGANYAGFDLNVILQGTGKRDYWISNVLTFPMNGDNFIPLFDGLSDYWMPKDPDNGDWTAVNPNAKYPRLYGNRGNSGSNLRQSDKYLSDASYLRIKNITLSYNLPKKWLSQIFLSQMKAFVSVENVATFTSLPSGIDPERIEWNYPAFRTVSFGINITL
soluble on expression in E. coli: not soluble
//
Ordered Residues: HHHHHHSSGLVPRGSGMKETAAAKFERQHMDSPDLGTDDDDKASSSANECISVKGRIYSILKQIGSGGSSKVFQVLNEKKQIYAIKYVNLEEADNQTLDSYRNEIAYLNKLQQHSDKIIRLYDYEITDQYIYMVMECGNIDLNSWLKKKKSIDPWERKSYWKNMLEAVHTIHQHGIVHSDLKPANFLIVDGMLKLIDFGIANQMQPDTTSVVKDSQVGAVNYMPPEAIKDMSSSRENGKSKSKISPKSDVWSLGCILYYMTYGKTPFQQIINQISKLHAIIDPNHEIEFPDIPEKDLQDVLKCCLKRDPKQRISIPELLAHPYVQIQTHPVNQMAKGTTEEMKYVLGQLVGLNSPNSILKAAKTLYEHYSGGESHNSSSSKTFEKKRGKK
soluble on expression in E. coli: soluble
//
Ordered Residues: MANQHANHSINDFKQFVKKHPKLIKEVRKEQRSWQDVYENWVLFGESDPIWDPYREPEEASEAVPETPQKNDFVSKMVTAVKKMDVNQMNEQINKMSQSISSLQSLLNTFSGSGQKHSQPGSGQHPFSFRKDLEHHHHHH
soluble on expression in E. coli: soluble

Now for a further sequence.
response.value for "MGSDKIHHHHHHMKLSCSQSELNNALQLVSRAVSNRPTHPVLANVLLAADEVTGKLRLTGFDLSLGIQTSISASIDSSGAITLPAKLFGEIVSKLSNDSPLVLTSDETSQQVELTSKSGTYQVRGMLSDDFPELPLVENGTSFKLNPLLLSNAIKSTLFASSTDDAKQLLTGVNLTFDGYGIESAATDGHRLAVLNLNNILSDSKEIDSSIKFEKFSITLPSKSLREVEKFLSTCDISHPINFFIDKGQVVFISVEDIITIRALEGSYPNYSQLLPDTFENELEFDRKEFISSLERIAVLADQHNNVIKVTTDGSANLIKISTDAQDIGTGYESLPVSYKGDSFQIAFNVRYLLDGLKVIDSNLIKLSCNSPTTPAIFSPINSDVNFTYLVMPIQIRN" (field: soluble on expression in E. coli) = not soluble
